Just for reference, patent US9981928B2 is where these values come from.

Measured logP (HCOOH) of individual entries
experimentalDetails: log P determination by HPLC on reversed-phase columns (C 18), analogously to OECD Guideline 117
Type: physicochemical
measurementConditions: LC-MS in the acidic range, pH 2.7, 0.1% aqueous formic acid / acetonitrile, HPLC reversed-phase C 18
Note: the reply should be a number with no unit written.

Which logP (HCOOH) reading was recorded for the molecule Cc1cc(F)c(-n2c(=O)n(C3CC3)c(=O)n2C)cc1[S+]([O-])CC(F)(F)F (single isomer, unassigned) [Example 197] ?
1.97

Now this one: CCn1c(=O)n(CC(C)C)n(-c2cc(SCC(F)(F)F)c(C)cc2F)c1=O
3.82

Now this one: Cc1cc(F)c(-n2c(=O)n(CC(F)F)c(=O)n2CC(F)(F)F)cc1[S+]([O-])CC(F)(F)F (centres unmarked)
2.60

Now this one: Cn1c(=O)n(C2CC2)c(=O)n1-c1ccc(Br)c(SCC(F)(F)F)c1
3.11

Now this one: Cn1c(=O)n(C2CC2)c(=O)n1-c1ccc(Cl)c([S+]([O-])CC(F)(F)F)c1 (centres unmarked)
2.20

Now this one: Cc1cc(F)c(-n2c(=O)n(C)c(=O)n2C2C=CCCC2)cc1[S+]([O-])CC(F)(F)F (centres unmarked)
2.66

Now this one: CCn1c(=O)n(-c2ccc(C)c([S+]([O-])CC(F)(F)F)c2)n(C(C)C)c1=O (centres unmarked)
2.56

Now this one: Cc1cc(F)c(-n2c(=O)n(C)c(=O)n2C2CCCC2)cc1SCC(F)(F)F
3.75

----------
experimentalDetails: log P determination by HPLC on reversed-phase columns (C 18), analogously to OECD Guideline 117
Assay type: physicochemical
measurementConditions: LC-MS in the neutral range, pH 7.8, 0.001 molar aqueous ammonium hydrogencarbonate / acetonitrile, HPLC reversed-phase C 18
observable: logP (neutral)

Solved entries:
Which logP (neutral) reading was recorded for the compound CCn1c(=O)n(C2CC2)c(=O)n1-c1cc([S+]([O-])CC(F)(F)F)c(C)cc1F (stereo not shown) ?
2.15

Now this one: Cn1c(=O)n(C2CC2)c(=O)n1-c1ccc(Cl)c(SCC(F)(F)F)c1
2.98

Now this one: Cc1cc(F)c(N2C(=O)CN(C)C2=O)cc1SCC(F)(F)F
2.33

Now this one: COc1ccc(-n2c(=O)n(C3CC3)c(=O)n2C)cc1[S+]([O-])CC(F)(F)F (stereo not shown)
1.75

Now this one: Cc1cc(F)c(-n2c(=O)n(C3CC3)c(=O)n2C)cc1[S+]([O-])CC(F)(F)F (stereo not shown) [Example 34]
1.88

Now this one: Cc1ccc(-n2c(=O)n(C(C)(C)C)c(=O)n2C(C)C)cc1SCC(F)(F)F
4.70

More entries:
Which logP (neutral) reading was recorded for the compound CCn1c(=O)n(C)c(=O)n1-c1cc(SCC(F)(F)F)c(C)cc1F ?
2.83

Now this one: Cn1c(=O)n(C2CC2)c(=O)n1-c1ccc(C(F)(F)F)c([S+]([O-])CC(F)(F)F)c1 (stereo not shown)
2.58

Now this one: C=CCn1c(=O)n(-c2ccc(C)c(SCC(F)(F)F)c2)n(-c2ccc(C)c(SCC(F)(F)F)c2)c1=O
4.67
